Entries and their measured kon follow.
- tgt: feline FcRn (FCN-F82W3, Acrobiosystems) (feline)
- procedure.text: SPR Carterra, IgG coupled, pH 6.0
metric.name: kon (M⁻¹ s⁻¹)

binder: anti-NGF feline IgG1a, Fc variant S252Y (antibody, part only; not given: Anti-NGF variable domains, not shown: another chain or arm of the molecule; small tags and cut ends) Fc: PPEMLGGPSIFIFPPKPKDTLYISRTPEVTCLVVDLGPDDSDVQITWFVDNTQVYTAKTSPREEQFNSTYRVVSVLPILHQDWLKGKEFKCKVNSKSLPSPIERTISKAKGQPHEPQVYVLPPAQEELSRNKVSVTCLIKSFHPPDIAVEWEITGQPEPENNYRTTPPQLDSDGTYFVYSKLSVDRSHWQRGNTYTCSVSHEALHSHHTQKSLTQSPGK
unit.name: M⁻¹ s⁻¹
measurement: 974000

binder: anti-NGF feline IgG1a, Fc variant S434Y, K326D (antibody, part only; not given: anti-NGF variable domains, light chain, not shown: another chain or arm of the molecule; small tags and cut ends) Fc: PPEMLGGPSIFIFPPKPKDTLSISRTPEVTCLVVDLGPDDSDVQITWFVDNTQVYTAKTSPREEQFNSTYRVVSVLPILHQDWLKGKEFKCKVNSDSLPSPIERTISKAKGQPHEPQVYVLPPAQEELSRNKVSVTCLIKSFHPPDIAVEWEITGQPEPENNYRTTPPQLDSDGTYFVYSKLSVDRSHWQRGNTYTCSVSHEALHYHHTQKSLTQSPGK
unit.name: M⁻¹ s⁻¹
measurement: 1.38e+06

binder: anti-NGF feline IgG1a, Fc variant T286D (antibody, part only; not given: anti-NGF variable domains, not shown: another chain or arm of the molecule; small tags and cut ends) Fc: PPEMLGGPSIFIFPPKPKDTLSISRTPEVTCLVVDLGPDDSDVQITWFVDNTQVYDAKTSPREEQFNSTYRVVSVLPILHQDWLKGKEFKCKVNSKSLPSPIERTISKAKGQPHEPQVYVLPPAQEELSRNKVSVTCLIKSFHPPDIAVEWEITGQPEPENNYRTTPPQLDSDGTYFVYSKLSVDRSHWQRGNTYTCSVSHEALHSHHTQKSLTQSPGK
unit.name: M⁻¹ s⁻¹
measurement: 400000

binder: anti-NGF feline IgG1a, Fc variant R334D, R301L (antibody, part only; not given: anti-NGF variable domains, light chain, not shown: another chain or arm of the molecule; small tags and cut ends) Fc: PPEMLGGPSIFIFPPKPKDTLSISRTPEVTCLVVDLGPDDSDVQITWFVDNTQVYTAKTSPREEQFNSTYLVVSVLPILHQDWLKGKEFKCKVNSKSLPSPIEDTISKAKGQPHEPQVYVLPPAQEELSRNKVSVTCLIKSFHPPDIAVEWEITGQPEPENNYRTTPPQLDSDGTYFVYSKLSVDRSHWQRGNTYTCSVSHEALHSHHTQKSLTQSPGK
unit.name: M⁻¹ s⁻¹
measurement: 460000

binder: anti-NGF feline IgG1a, Fc variant S428Y, Q311V (antibody, part only; not given: Anti-NGF variable domains, not shown: another chain or arm of the molecule; small tags and cut ends) Fc: PPEMLGGPSIFIFPPKPKDTLSISRTPEVTCLVVDLGPDDSDVQITWFVDNTQVYTAKTSPREEQFNSTYRVVSVLPILHVDWLKGKEFKCKVNSKSLPSPIERTISKAKGQPHEPQVYVLPPAQEELSRNKVSVTCLIKSFHPPDIAVEWEITGQPEPENNYRTTPPQLDSDGTYFVYSKLSVDRSHWQRGNTYTCSVYHEALHSHHTQKSLTQSPGK
unit.name: M⁻¹ s⁻¹
measurement: 893000
